- Assay Details: qHTS assay to identify small molecule agonists of the androgen receptor (AR) signaling pathway in the presence of an antagonist - cell viability counter screen (AID 1259379); note: nearly all actives have a fitted effect of over 25% in size
- Recorded Conditions: MDA-kb2 viability, CellTiter-Fluor, 16 h; series mostly up to 92.4 µM
Results filed as inconclusive are left out. Calls of active or inactive are those of the source. Calls come from the whole dose curve; as a rule, active = well fitted cell-killing curve with a large enough effect in the repeat runs; inconclusive = weak or mixed curves, or effect the other way; inactive = flat fitted curve, though single readings scatter.
Please state which outcome applies, choosing from T for active, F for inactive

>  <Compound>
CC(C)Cc1ccccc1

>  <Class Name>
F

$$$$
>  <Compound>
C=CC(=O)OCCCCCCCC(C)C

>  <Class Name>
F

$$$$
>  <Compound>
CCc1ccccc1O

>  <Class Name>
F

$$$$
>  <Compound>
CNC[C@H](O)[C@@H](O)[C@H](O)[C@H](O)CO

>  <Class Name>
F

$$$$
>  <Compound>
ClC1=C(Cl)C(Cl)(Cl)C(Cl)=C1Cl

>  <Class Name>
T

$$$$
>  <Compound>
COCC(=O)O

>  <Class Name>
F

$$$$

Shift focus to the following entry.
Record request — test call for CCCCCC/C=C/CCCCCCCC(=O)O
F
